chemical.structure: CCOCCN(CCOCC)NC(=O)NS(=O)(=O)c1ccc(Cl)cc1
melting point: 84.5 to 85.5 °C
//
chemical.structure: COc1ccc(N(C)C(=O)CN(C(=O)CN2C(=O)c3ccccc3C2=O)c2ccccc2)cc1
melting point: 162 °C
//
chemical.structure: C#CCSc1ncn(C(=O)N(CC)CC)n1
melting point: 67 to 69 °C
//
chemical.structure: Cc1cc(C)cc(S(=O)(=O)n2c(CCC(=O)O)cc3cc(Cl)ccc32)c1
melting point: 189 to 193 °C
//
chemical.structure: CC(C)c1cc(/C=C/C(=O)O)n(Cc2ccc(Cl)cc2Cl)n1
melting point: 174 to 175 °C
